System: ivyleaf morningglory (Ipomoea hederacea, IPOHE)
Experiment: Post-emerge test, greenhouse herbicide activity screening
Format: in vivo
Details: 250 g ai/ha; phytotoxicity rating 0-100 (0 no damage, 100 complete death), 14 days after application
So I've got a bunch of compounds here, and I need their Post-emerge Herbicidal Activity IPOHE values.
Output: the number by itself.

Could you tell me which Post-emerge Herbicidal Activity IPOHE is on file for CCOC(=O)C(C)Nc1c(OC)c(Cl)cc(F)c1-n1c(=O)cc(C(F)(F)F)n(C)c1=O (centres unmarked) ?
95

Same question for `COc1c(Cl)cc(F)c(-n2c(=O)c(N)c(C(F)(F)F)n(C)c2=O)c1N` please.
70

Same question for `C=CC(=O)N(C(=O)C=C)c1c(OC)c(Cl)cc(F)c1-n1c(=O)cc(C(F)(F)F)n(C)c1=O` please.
20

Same question for `C#CCOc1c(Cl)cc(F)c(-n2c(=O)cc(C(F)(F)F)n(C)c2=O)c1N` please.
95

Same question for `CC(C)Oc1c(Cl)cc(F)c(-n2c(=O)cc(C(F)(F)F)n(C)c2=O)c1N` please.
90

Same question for `Cn1c(C(F)(F)F)cc(=O)n(-c2c(F)cc(Cl)c(OCC#N)c2NC(=O)C(F)(F)F)c1=O` please.
60

Same question for `COc1c(Cl)cc(F)c(-n2c(=O)cc(C(F)(F)F)n(C)c2=O)c1NC(=O)CC#N` please.
80

Same question for `COC(=O)C=CCOc1c(Cl)cc(F)c(-n2c(=O)cc(C(F)(F)F)n(C)c2=O)c1N` please.
100
